Let's look at some compounds and their measured melting point.

Prompt: Which melting point value belongs to CS(=O)(=O)N1CC2(CCN(C(=O)Nc3cnc(-c4ccccc4)cn3)CC2)c2ccc(F)cc21 ?
Response: 234 to 237 °C

Prompt: Which value of melting point has been reported for Cc1cccc2sc(NC(=O)N3CCC4(CC3)CN(S(C)(=O)=O)c3ccccc34)nc12 in the records?
Response: 182 to 183 °C

Prompt: Suppose we examine the compound CCc1cc(-c2ccc(NC(=O)N3CCC4(CC3)CN(S(C)(=O)=O)c3ccccc34)cc2)ccn1.Cl ; what melting point value has been reported?
Response: 220 to 222 °C

---

property.label: melting point

Previously resolved entries follow.
compound	assay.result
CCS(=O)(=O)N1CC2(CCN(C(=O)Nc3cnc(-c4nncs4)cn3)CC2)c2cc(F)ccc21	223 to 224 °C
CS(=O)(=O)N1CC2(CCN(C(=O)Nc3cc(-c4ccccc4)no3)CC2)c2ccccc21	235 to 237 °C
CCS(=O)(=O)N1CC2(CCN(C(=O)Nc3cn(-c4ccccc4F)cn3)CC2)c2ccccc21	180 to 181.5 °C

Please turn your attention to the following entry.
Prompt: melting point for CS(=O)(=O)N1CC2(CCN(C(=O)Nc3cnc(-c4ncns4)cn3)CC2)c2ccccc21 ?
Response: 234 to 238 °C

---

property.label: melting point

Solved cases (5 shown):
compound	assay.result
CN(C)C(=O)N1CC2(CCN(C(=O)Nc3nnc(-c4ccccc4)s3)CC2)c2ccccc21	267 °C
CS(=O)(=O)N1CC2(CCN(C(=O)Nc3nc(-c4ccccc4)co3)CC2)c2ccccc21	189 to 192 °C
CS(=O)(=O)N1CC2(CCN(C(=O)Nc3cnc(-c4ccccn4)cn3)CC2)c2ccccc21	234 to 235 °C
CS(=O)(=O)N1CC2(CCN(C(=O)Nc3cc(-c4ccccc4)no3)CC2)c2cccnc21	211 to 212 °C
CS(=O)(=O)N1CC2(CCN(C(=O)Nc3ncc(-c4ccccc4)cn3)CC2)c2ccccc21	122 to 123 °C

Prompt: Give the measured melting point of CC(=O)N1CC2(CCN(C(=O)Nc3nnc(-c4ccccc4)s3)CC2)c2ccccc21 .
Response: 260 °C

Prompt: Which melting point is reported for this molecule? CS(=O)(=O)N1CC2(CCN(C(=O)Nc3cnc4ccc(Cl)cc4n3)CC2)c2ccccc21
Response: 213 to 214 °C

Prompt: Which melting point is listed for CCS(=O)(=O)N1CC2(CCN(C(=O)Nc3cc(-c4ccc(Cl)cc4)on3)CC2)c2ccccc21 ?
Response: 178.3 to 178.5 °C

Prompt: Bench note: what melting point did CS(=O)(=O)N1CC2(CCN(C(=O)Nc3cc4cc(Cl)ccc4[nH]3)CC2)c2ccccc21 show?
Response: 172 to 176 °C

Prompt: Bench note: what melting point did NS(=O)(=O)N1CC2(CCN(C(=O)Nc3nnc(-c4ccccc4)s3)CC2)c2ccccc21 show?
Response: > 300 °C

---

Each entry below lists one item and its recorded melting point value.

compound	property.label	assay.result
CS(=O)(=O)N1CC2(CCN(C(=O)Nc3ccc(-c4ccccc4)cn3)CC2)c2ccccc21	melting point	214 °C
CCS(=O)(=O)N1CC2(CCN(C(=O)Nc3cn(-c4ccccc4)cn3)CC2)c2cc(F)ccc21.Cl	melting point	140 to 141 °C
CS(=O)(=O)N1CC2(CCN(C(=O)Nc3ccc(-c4ccccc4)nc3)CC2)c2ccccc21	melting point	224 °C

Prompt: melting point for COc1ccc2oc(NC(=O)N3CCC4(CC3)CN(S(C)(=O)=O)c3ccccc34)nc2c1 ?
Response: 194 to 196 °C
